method.notes: Plasma pharmacokinetics of buparlisib, non-compartmental analysis
Type: in vivo, human
test.parameters: human, plasma, oral, 50 mg, Tmax, Group 2, 50 mg, n = 4, cycle 1/day 1, mean
readout.label: Tmax (h)
Kindly answer with a numeric value in h, unit omitted.

Bench note: what Tmax did "Nc1cc(C(F)(F)F)c(-c2cc(N3CCOCC3)nc(N3CCOCC3)n2)cn1" show? 2.13

----------
method.notes: Plasma pharmacokinetics of buparlisib, non-compartmental analysis
Assay type: in vivo, human
test.parameters: human, plasma, oral, 50 mg, Tmax, Group 1, 50 mg, n = 6, cycle 1/day 1, mean
readout.label: Tmax (h)
Answer format: numeric, h implied, no suffix.

If you can, please state the reported Tmax value of Nc1cc(C(F)(F)F)c(-c2cc(N3CCOCC3)nc(N3CCOCC3)n2)cn1 [buparlisib] . 4.83

----------
method.notes: Plasma pharmacokinetics of buparlisib, non-compartmental analysis
Assay type: in vivo, human
test.parameters: human, plasma, oral, 50 mg, AUC0–8 h, Group 2, 50 mg, n = 4, cycle 1/day 1, mean
readout.label: AUC(0-t)

Param item = "Nc1cc(C(F)(F)F)c(-c2cc(N3CCOCC3)nc(N3CCOCC3)n2)cn1" ; retrieve measured AUC(0-t). 1520 ng·h/mL

----------
method.notes: Plasma pharmacokinetics of buparlisib, non-compartmental analysis
Format: in vivo, human
test.parameters: human, plasma, oral, 100 mg, Cmax, Group 2, 100 mg, n = 4, cycle 1/day 1, mean
readout.label: Cmax (ng/mL)
Reply numerically in ng/mL, unit not repeated.

Would you kindly share the measured Cmax for Nc1cc(C(F)(F)F)c(-c2cc(N3CCOCC3)nc(N3CCOCC3)n2)cn1 [buparlisib] ? 960

----------
method.notes: Plasma pharmacokinetics of buparlisib, non-compartmental analysis
Assay type: in vivo, human
test.parameters: human, plasma, oral, 80 mg, AUC0–8 h, Group 1, 80 mg, n = 3, cycle 1/day 1, mean
readout.label: AUC(0-t) (ng·h/mL)
Kindly provide the numeric value in ng·h/mL only, without the unit symbol.

AUC(0-t) for "Nc1cc(C(F)(F)F)c(-c2cc(N3CCOCC3)nc(N3CCOCC3)n2)cn1" ? 2550

----------
method.notes: Plasma pharmacokinetics of buparlisib, non-compartmental analysis
Type: in vivo, human
test.parameters: human, plasma, oral, 50 mg, Cmax, Group 1, 50 mg, n = 6, cycle 1/day 1, mean
readout.label: Cmax (ng/mL)
Your answer should be a plain number; it is taken to be in ng/mL.

# get_value(readout='Cmax', item= Nc1cc(C(F)(F)F)c(-c2cc(N3CCOCC3)nc(N3CCOCC3)n2)cn1 [buparlisib] ) 285

----------
method.notes: Plasma pharmacokinetics of buparlisib, non-compartmental analysis
Format: in vivo, human
test.parameters: human, plasma, oral, 80 mg, Tmax, Group 2, 80 mg, n = 6, cycle 1/day 1, mean
readout.label: Tmax (h)
The figure you give is taken to be in h; do not add the unit.

Query: Tmax; subject: Nc1cc(C(F)(F)F)c(-c2cc(N3CCOCC3)nc(N3CCOCC3)n2)cn1 [buparlisib] 2.08

----------
method.notes: Plasma pharmacokinetics of buparlisib, non-compartmental analysis
Type: in vivo, human
test.parameters: human, plasma, oral, 80 mg, Tmax, Group 1, 80 mg, n = 3, cycle 1/day 1, mean
readout.label: Tmax (h)
Form entry: value (h) — number only.

Would you mind telling me what Tmax value was observed for Nc1cc(C(F)(F)F)c(-c2cc(N3CCOCC3)nc(N3CCOCC3)n2)cn1 [buparlisib] ? 3.67

----------
method.notes: Plasma pharmacokinetics of buparlisib, non-compartmental analysis
Type: in vivo, human
test.parameters: human, plasma, oral, 100 mg, AUC0–8 h, Group 1, 100 mg, n = 7, cycle 1/day 1, mean
readout.label: AUC(0-t) (ng·h/mL)
Just the number in ng·h/mL, nothing appended.

Given "Nc1cc(C(F)(F)F)c(-c2cc(N3CCOCC3)nc(N3CCOCC3)n2)cn1" , state its recorded AUC(0-t). 3460

----------
method.notes: Plasma pharmacokinetics of buparlisib, non-compartmental analysis
Type: in vivo, human
test.parameters: human, plasma, oral, 50 mg, AUC0–8 h, Group 1, 50 mg, n = 6, cycle 1/day 1, mean
readout.label: AUC(0-t) (ng·h/mL)
The answer is to be given in ng·h/mL; state only the numeric part.

Tell me the measured AUC(0-t) of Nc1cc(C(F)(F)F)c(-c2cc(N3CCOCC3)nc(N3CCOCC3)n2)cn1 [buparlisib] , please. 1220

----------
method.notes: Plasma pharmacokinetics of buparlisib, non-compartmental analysis
Type: in vivo, human
test.parameters: human, plasma, oral, 100 mg, AUC0–8 h, Group 2, 100 mg, n = 4, cycle 1/day 1, mean
readout.label: AUC(0-t)
Param answer (str): number followed by unit.

So what does the record say about AUC(0-t) for Nc1cc(C(F)(F)F)c(-c2cc(N3CCOCC3)nc(N3CCOCC3)n2)cn1 [buparlisib] ? 3410 ng·h/mL

----------
method.notes: Plasma pharmacokinetics of buparlisib, non-compartmental analysis
Type: in vivo, human
test.parameters: human, plasma, oral, 80 mg, AUC0–8 h, Group 2, 80 mg, n = 6, cycle 1/day 1, mean
readout.label: AUC(0-t)

Which AUC(0-t) value is on record for Nc1cc(C(F)(F)F)c(-c2cc(N3CCOCC3)nc(N3CCOCC3)n2)cn1 [buparlisib] ? 1970 ng·h/mL

----------
method.notes: Plasma pharmacokinetics of buparlisib, non-compartmental analysis
Format: in vivo, human
test.parameters: human, plasma, oral, 80 mg, Cmax, Group 2, 80 mg, n = 6, cycle 1/day 1, mean
readout.label: Cmax (ng/mL)
Reply numerically in ng/mL, unit not repeated.

Any idea what its Cmax is? The compound is "Nc1cc(C(F)(F)F)c(-c2cc(N3CCOCC3)nc(N3CCOCC3)n2)cn1" 555

----------
method.notes: Plasma pharmacokinetics of buparlisib, non-compartmental analysis
Type: in vivo, human
test.parameters: human, plasma, oral, 50 mg, Cmax, Group 2, 50 mg, n = 4, cycle 1/day 1, mean
readout.label: Cmax
Answer format reminder: number followed by unit.

Look at this compound and give its reported Cmax. "Nc1cc(C(F)(F)F)c(-c2cc(N3CCOCC3)nc(N3CCOCC3)n2)cn1" 0.399 µg/mL
